- method: in vitro
- Assay type: in vitro ADME
- conditionParameters: simulated intestinal juice, pH 7.5
Where a name gives a salt, the structure may show the parent alone.
readoutType: metabolised at 10 min

The value of metabolised at 10 min measured for the compound CC1(C)S[C@@H]2[C@H](NC(=O)[C@H](N)c3ccccc3)C(=O)N2[C@H]1C(=O)OCc1oc(=O)oc1-c1ccccc1 [B, hydrochloride] turned out to be 37%

# metabolised at 10 min of Cc1oc(=O)oc1COC(=O)[C@@H]1N2C(=O)[C@@H](NC(=O)[C@H](N)c3ccccc3)[C@H]2SC1(C)C [A, hydrochloride] = 32%

// metabolised at 10 min lookup, compound = CC1(C)S[C@@H]2[C@H](NC(=O)[C@H](N)c3ccccc3)C(=O)N2[C@H]1C(=O)OC1OC(=O)c2ccccc21 (stereo partly drawn) [C, hydrochloride, reference compound] , result: 61%

###

- method: in vitro
- Type: in vitro ADME
- conditionParameters: simulated intestinal juice, pH 7.5
- Experimental: The procedure of (a) was repeated except that a basic aqueous medium (simulated intestinal juice) having a pH of 7.50 prepared by adding 35.8 g of disodium phosphate, 6.0 ml of 10% hydrochloric acid and 2.8 g of pancreatin to 1000 ml of water was used instead of the acidic aqueous medium.
Counter-ions that a name gives are not always drawn.
Would you kindly list metabolised at 0.5 h for each of these molecules?
Answer format: numeric, % implied, no suffix.

Quick note, metabolised at 0.5 h for CC1(C)S[C@@H]2[C@H](NC(=O)[C@H](N)c3ccccc3)C(=O)N2[C@H]1C(=O)OC1OC(=O)c2ccccc21 (stereo partly drawn) [C, hydrochloride, reference compound] landed at 95

metabolised at 0.5 h recorded for this molecule, CC1(C)S[C@@H]2[C@H](NC(=O)[C@H](N)c3ccccc3)C(=O)N2[C@H]1C(=O)OCc1oc(=O)oc1-c1ccccc1 [B, hydrochloride] , is 70

Lookup result for Cc1oc(=O)oc1COC(=O)[C@@H]1N2C(=O)[C@@H](NC(=O)[C@H](N)c3ccccc3)[C@H]2SC1(C)C [A, hydrochloride] ; measured metabolised at 0.5 h: 65

###

- method: in vitro
- Assay type: in vitro ADME
- conditionParameters: simulated gastric juice, pH 1.2
Structures can show the parent of a compound that is named as a salt.
readoutType: metabolised at 20 h (%)
// note: answer is a bare numeric in %

metabolised at 20 h reported for this compound Cc1oc(=O)oc1COC(=O)[C@@H]1N2C(=O)[C@@H](NC(=O)[C@H](N)c3ccccc3)[C@H]2SC1(C)C [A, hydrochloride] : 52

// sample CC1(C)S[C@@H]2[C@H](NC(=O)[C@H](N)c3ccccc3)C(=O)N2[C@H]1C(=O)OC1OC(=O)c2ccccc21 (stereo partly drawn) [C, hydrochloride, reference compound] , its metabolised at 20 h was 100

Notebook: CC1(C)S[C@@H]2[C@H](NC(=O)[C@H](N)c3ccccc3)C(=O)N2[C@H]1C(=O)OCc1oc(=O)oc1-c1ccccc1 [B, hydrochloride] , metabolised at 20 h read as 65

###

Give metabolised at 6 h for every item shown.
- method: in vitro
- Assay type: in vitro ADME
- conditionParameters: simulated gastric juice, pH 1.2
Where a name gives a salt, the structure may show the parent alone.

For reference, reported metabolised at 6 h for CC1(C)S[C@@H]2[C@H](NC(=O)[C@H](N)c3ccccc3)C(=O)N2[C@H]1C(=O)OC1OC(=O)c2ccccc21 (stereo partly drawn) [C, hydrochloride, reference compound] stands at 55%

Notebook: Cc1oc(=O)oc1COC(=O)[C@@H]1N2C(=O)[C@@H](NC(=O)[C@H](N)c3ccccc3)[C@H]2SC1(C)C [A, hydrochloride] , metabolised at 6 h read as 28%

metabolised at 6 h recorded for this compound, CC1(C)S[C@@H]2[C@H](NC(=O)[C@H](N)c3ccccc3)C(=O)N2[C@H]1C(=O)OCc1oc(=O)oc1-c1ccccc1 [B, hydrochloride] , is 35%

Data origin, for the record: patent US4389408A
